- EXPERIMENT NOTES: soluble on expression in E. coli; label from the status in PepcDB or PDB records
MEASURE: soluble on expression in E. coli

QUERY SEQUENCE	RESULT
MGSDKIHHHHHHMGIENMKICIVSFTKKGYELSCDIAYKLEKSAYEVEVFTKCSRLSDENIKNSTDENYRNTGYISQNISDWTAAQMSEKKALIFIGACGIAVRAIASSVNNKLKDSPVIVIDELGKFVIPILSGHVGGANEFAVLLAALMNATPVITTATDINNKFAVDVFAKKCRLAIVNKDGIARVSSKVLAGEVVTMSVDWEHIPAKHRSLIKAFLDKADMSADAIKTVDFPPAYGADIVVSCEKEKDTKNGSIYLKPTQFVLGIGCRRDTAFENIDRAIRQSLLKLQIDISDIDMIASIDVKKDEPGIKEFCERNRIEFVTYTADELMAVQGEFSASQFVREHVGVDNVCERAAVLACSRECDKAGELIYKKHKYDRVTVAAARYPD	not soluble
MKPVYLAMNYFGPHEHSIIDFSKLESTPIFLISGDTGAGKSTIFDAMTFALFGSTTNDGTDGRAAKEMRSQFAPADQPTSVTFYFEQGNQLYKIARSPEQYLAKKKGSGLTKKNSTAKLAVVDHVGGVEIESIATKPADVGPEITTILNLTADQFKKIILLPQNDFSEFLKSKTTDKEKILKKIFGTQLYSDFTAELKAEYQTASKTGDQFVADLRVALASATWNDEEQAQLQAVPDNQKIPLLRAFVTTRQSAFDQAQQT	not soluble
